# test method notes: protein stability index of a GFP-peptide fusion (yeast GPS) (PSI 1-4); higher = more stable; sorted into four equal gates, so the index is relative within each strain
# measurement setup: pdr5∆
Answer each item with its documented protein stability index.
Answers are plain numbers.

[[record]]
entry_sequence = "NVMLEKIKDNKEKIKNN [RPT5]"
test_value = 2.94

[[record]]
entry_sequence = "SMNVTLGVPRIKEIINA [RPO31]"
test_value = 2.56

[[record]]
entry_sequence = "EVFIGRVKDQDGRVNRF [YJR042W/NUP85]"
test_value = 3.28

[[record]]
entry_sequence = "IQKGKFTLLDFKKQMQT [SRP54]"
test_value = 1.85

[[record]]
entry_sequence = "VGHLSILPQQSKLKLKN [ECM29]"
test_value = 2.31


I would be grateful if you could provide protein stability index for each of the following entries.
1. SVAEVFQKAQGSYAGHR [YCG1]
2. NQSTIYEDEELSRAEYD [LIN1]

1. 1.38
2. 3.2

* * *

# test method notes: protein stability index of a GFP-peptide fusion (yeast GPS) (PSI 1-4); higher = more stable; sorted into four equal gates, so the index is relative within each strain
# measurement setup: san1∆
reported endpoint: protein stability index
Give bare numbers.

Please give protein stability index for each item listed below.
1. VTNDDKSDDDDHTVDEI [SRB8]
2. KATLELLKLIEPYVAYG [RPL7A]
3. YPNSSKLKRNSDRREHD [LIN1]

3.07
3.3
3.02

Respectfully, I request protein stability index for each entry included below.
1. ISDVKIQVAAFIYGMSA [PRP8]
2. TDLTNNSTDGAKITEIG [YIL149C/MLP2]
3. RDLSEASVYPEYALPKT [RPS26A]
4. GRFLRVPKEGLFYFDSS [BRR2]
5. DFISPELIIDKVTCSSN [MED1]
6. QDVDDAHAIDQMTWRQW [POP8]

1. 1.84
2. 3.07
3. 3.16
4. 3.3
5. 1.82
6. 1.78

Report protein stability index for every entry below.
1. WKLLNQLVLRGLLSQAI [YJR042W/NUP85]
2. MFGIRSGNNNGGFTNLT [YDL088C/ASM4]
3. DESYARAYRIIRAHQTE [QCR7]
4. KRPIESGTSSDPDTKKV [YIL149C/MLP2]

1.28
3.19
3.14
3.2

* * *

# test method notes: protein stability index of a GFP-peptide fusion (yeast GPS) (PSI 1-4); higher = more stable; sorted into four equal gates, so the index is relative within each strain
# measurement setup: pdr5∆
reported endpoint: protein stability index
Answers are plain numbers.

[[record]]
entry_sequence = "ASILLALTQMDQDKVNF [RPB3]"
test_value = 3.28


For every listed record, write down its protein stability index.
1. LRLLEVTDDDRLWLKKV [POP8]
2. LLVQSLNDMVLELKENY [NNF1]
3. MYQMITMGGNAELELVD [SMC4]

1. 1.68
2. 1.52
3. 2.47

* * *

# test method notes: protein stability index of a GFP-peptide fusion (yeast GPS) (PSI 1-4); higher = more stable; sorted into four equal gates, so the index is relative within each strain
# measurement setup: doa10∆
reported endpoint: protein stability index

Please go through the list and note protein stability index for each sequence.
1. RASIEYYVGQVMRNNES [DIS3]
2. DITTSIMDNFLERTAIE [RPN1]
3. WRKWNVKVNHNEKRYAT [RPL4A]
4. LAIADSPQKFETNLQTF [ECM29]

1: 3.22; 2: 3.21; 3: 2.36; 4: 2.96
